tested on: Mus musculus; assay: Induction of hypothermia in Albino Swiss mouse assessed as change in body temperature pretreated for 30 mins at 10 mg/kg, ip measured 90 mins after drug dose; type: functional, organism-based; set-up: dose 10 mg/kg
Reported deltaT values are given for each entry in this list.
QUANTITY NAME: deltaT (°C)

{"COMPOUND SMILES": "O=c1c(-c2ccccc2F)c2ccccn2c(=O)n1CCCCN1CCC(c2c[nH]c3ccccc23)CC1", "QUANTITY NAME": "deltaT", "OBSERVED": -0.3}
{"COMPOUND SMILES": "Cc1ccc(-c2c(=O)n(CCCCN3CCC(c4c[nH]c5ccccc45)CC3)c(=O)n3ccccc23)cc1", "QUANTITY NAME": "deltaT", "OBSERVED": -0.1}
{"COMPOUND SMILES": "O=c1c(-c2ccc(F)cc2)c2ccccn2c(=O)n1CCCCN1CCC(c2c[nH]c3ccccc23)CC1", "QUANTITY NAME": "deltaT", "OBSERVED": -1}
{"COMPOUND SMILES": "O=c1c(-c2ccccc2)c2ccccn2c(=O)n1CCCCN1CCC(c2c[nH]c3ccccc23)CC1", "QUANTITY NAME": "deltaT", "OBSERVED": -0.3}
{"COMPOUND SMILES": "O=c1c(-c2ccc(Cl)cc2)c2ccccn2c(=O)n1CCCCN1CCC(c2c[nH]c3ccccc23)CC1", "QUANTITY NAME": "deltaT", "OBSERVED": -0.1}
{"COMPOUND SMILES": "COc1ccc(-c2c(=O)n(CCCCN3CCC(c4c[nH]c5ccccc45)CC3)c(=O)n3ccccc23)cc1", "QUANTITY NAME": "deltaT", "OBSERVED": -0.1}

###

molecular target: 5-hydroxytryptamine receptor 1A (Rattus norvegicus, UniProt P19327)
Sequence (P19327 whole entry): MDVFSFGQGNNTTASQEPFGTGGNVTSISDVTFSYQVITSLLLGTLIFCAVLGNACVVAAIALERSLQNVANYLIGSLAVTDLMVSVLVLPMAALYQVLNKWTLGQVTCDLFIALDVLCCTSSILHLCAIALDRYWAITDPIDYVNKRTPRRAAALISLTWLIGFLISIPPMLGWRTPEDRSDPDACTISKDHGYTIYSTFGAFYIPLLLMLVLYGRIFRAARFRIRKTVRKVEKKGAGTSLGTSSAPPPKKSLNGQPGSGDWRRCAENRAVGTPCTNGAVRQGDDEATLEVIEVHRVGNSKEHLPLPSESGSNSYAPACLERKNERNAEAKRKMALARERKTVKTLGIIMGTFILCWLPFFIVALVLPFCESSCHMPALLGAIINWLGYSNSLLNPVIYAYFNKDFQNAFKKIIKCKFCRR
Consider the following compounds and their measured Ki readings.

{"COMPOUND SMILES": "COc1ccc2[nH]cc(C3CCN(CCCCn4c(=O)c(-c5ccc(F)cc5)c5ccccn5c4=O)CC3)c2c1", "MEASURED ON": "5-hydroxytryptamine receptor 1A (Rattus norvegicus, UniProt P19327)", "Ki (nM)": 34.6}
{"COMPOUND SMILES": "COc1ccc2[nH]cc(C3CCN(CCCCn4c(=O)c(-c5ccccc5)c5ccccn5c4=O)CC3)c2c1", "MEASURED ON": "5-hydroxytryptamine receptor 1A (Rattus norvegicus, UniProt P19327)", "Ki (nM)": 52.3}
{"COMPOUND SMILES": "COc1ccc(-c2c(=O)n(CCCCN3CCC(c4c[nH]c5ccccc45)CC3)c(=O)n3ccccc23)cc1", "MEASURED ON": "5-hydroxytryptamine receptor 1A (Rattus norvegicus, UniProt P19327)", "Ki (nM)": 42.1}
{"COMPOUND SMILES": "COc1ccc2[nH]cc(C3CCN(CCCCn4c(=O)c(-c5ccc(Cl)cc5)c5ccccn5c4=O)CC3)c2c1", "MEASURED ON": "5-hydroxytryptamine receptor 1A (Rattus norvegicus, UniProt P19327)", "Ki (nM)": 41.1}
{"COMPOUND SMILES": "O=c1c(-c2ccc(F)cc2)c2ccccn2c(=O)n1CCCCN1CCC(c2c[nH]c3ccccc23)CC1", "MEASURED ON": "5-hydroxytryptamine receptor 1A (Rattus norvegicus, UniProt P19327)", "Ki (nM)": 9.2}
{"COMPOUND SMILES": "O=c1c(-c2ccccc2)c2ccccn2c(=O)n1CCCCN1CCC(c2c[nH]c3ccccc23)CC1", "MEASURED ON": "5-hydroxytryptamine receptor 1A (Rattus norvegicus, UniProt P19327)", "Ki (nM)": 10.9}
{"COMPOUND SMILES": "O=c1c(-c2ccc(Cl)cc2)c2ccccn2c(=O)n1CCCCN1CCC(c2c[nH]c3ccccc23)CC1", "MEASURED ON": "5-hydroxytryptamine receptor 1A (Rattus norvegicus, UniProt P19327)", "Ki (nM)": 37.1}
